Target chain: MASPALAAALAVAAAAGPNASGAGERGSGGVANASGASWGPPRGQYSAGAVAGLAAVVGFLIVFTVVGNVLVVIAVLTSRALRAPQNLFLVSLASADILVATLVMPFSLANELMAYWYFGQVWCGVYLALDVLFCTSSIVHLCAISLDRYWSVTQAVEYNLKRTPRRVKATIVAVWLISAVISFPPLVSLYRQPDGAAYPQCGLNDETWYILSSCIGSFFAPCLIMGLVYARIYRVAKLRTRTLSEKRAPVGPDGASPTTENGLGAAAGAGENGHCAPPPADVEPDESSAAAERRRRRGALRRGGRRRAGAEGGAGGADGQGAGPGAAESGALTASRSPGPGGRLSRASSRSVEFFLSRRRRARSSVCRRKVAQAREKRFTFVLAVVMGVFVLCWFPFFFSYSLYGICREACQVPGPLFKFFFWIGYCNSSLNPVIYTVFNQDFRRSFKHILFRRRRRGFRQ
Result type: pKi
Answers are plain numbers, as −log10 of the molar value.

Q: Name the reported pKi value associated with the compound CN1CC2C(=NO[C@H]2CN2CCN(C/C=C/c3ccccc3)CC2)c2ccccc21 (stereo partly specified)
Result: 8.35

----------
Assay: Metabolic stability in baboon brain assessed as compound remaining at 4.43 mCi after 30 mins
Format: ADME, tissue-based
Conditions: papio anubis, read-out: Stability
Result type: remaining at 0.5 h (%)
Answers are plain numbers, in %.

Q: remaining at 0.5 h lookup needed for [11CH3]N1CC2C(=NO[C@H]2CN2CCN(C/C=C/c3ccccc3)CC2)c2ccccc21 (stereo partly specified) , thanks.
Result: 35

----------
Assay: Metabolic stability in baboon brain assessed as compound remaining at 4.43 mCi after 90 mins
Type: ADME, tissue-based
Conditions: papio anubis, read-out: Stability
Result type: remaining at 1.5 h
Don't forget the unit after the number, please.

Q: Tell me the measured remaining at 1.5 h of [11CH3]N1CC2C(=NO[C@H]2CN2CCN(C/C=C/c3ccccc3)CC2)c2ccccc21 (stereo partly specified) , please.
Result: 21%
